Values compiled from ChEMBL document CHEMBL2202977.

# TARGET OR TEST SYSTEM: Pyruvate kinase (Staphylococcus aureus (strain MRSA252))
# Sequence (whole entry): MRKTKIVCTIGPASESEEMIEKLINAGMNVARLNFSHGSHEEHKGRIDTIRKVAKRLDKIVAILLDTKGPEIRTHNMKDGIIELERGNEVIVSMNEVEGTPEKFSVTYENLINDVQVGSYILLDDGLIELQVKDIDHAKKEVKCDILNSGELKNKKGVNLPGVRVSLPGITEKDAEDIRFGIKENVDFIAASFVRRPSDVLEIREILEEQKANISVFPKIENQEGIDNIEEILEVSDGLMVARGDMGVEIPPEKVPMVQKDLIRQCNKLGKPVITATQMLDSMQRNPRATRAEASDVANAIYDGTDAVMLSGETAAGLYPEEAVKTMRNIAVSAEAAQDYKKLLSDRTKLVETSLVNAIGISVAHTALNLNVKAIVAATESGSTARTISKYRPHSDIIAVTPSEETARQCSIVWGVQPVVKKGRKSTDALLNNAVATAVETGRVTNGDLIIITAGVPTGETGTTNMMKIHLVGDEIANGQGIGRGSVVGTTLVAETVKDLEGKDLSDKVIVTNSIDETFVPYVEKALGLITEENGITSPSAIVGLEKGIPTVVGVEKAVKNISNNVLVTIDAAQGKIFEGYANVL
# TEST NAME: Inhibition of methicillin-resistant Staphylococcus aureus 252 pyruvate kinase at 1 uM by LDH assay
# EXPERIMENTAL CONDITIONS: Staphylococcus aureus subsp. aureus MRSA252
Would you mind telling me the reported inhibition of each entry?
Give bare numbers, in %.

Use these answered entries as a reference point.
C/C(=N\NC(=O)c1cc(Br)ccc1O)c1cc2cc(-c3ccccc3)ccc2[nH]1: 0
CC(=NNC(=O)c1cc(Br)ccc1O)c1cc2cc(O)ccc2n1C (mixture of isomers): 54
COc1ccc(Br)cc1C(=O)N(C)/N=C(\C)c1cc2ccccc2[nH]1: 33
C/C(=N\NC(=O)c1cc(Cl)ccc1O)c1cc2ccccc2[nH]1: 36

Consider the compound `COc1c(Br)cc(Br)cc1C(=O)N/N=C(\C)c1cc2ccccc2[nH]1` . State its measured inhibition.
57

====

Field: inhibition. Provide a value for each of the molecules that follow.
# TARGET OR TEST SYSTEM: UniProt:P14618
# Sequence (P14618 2-531 limits assumed): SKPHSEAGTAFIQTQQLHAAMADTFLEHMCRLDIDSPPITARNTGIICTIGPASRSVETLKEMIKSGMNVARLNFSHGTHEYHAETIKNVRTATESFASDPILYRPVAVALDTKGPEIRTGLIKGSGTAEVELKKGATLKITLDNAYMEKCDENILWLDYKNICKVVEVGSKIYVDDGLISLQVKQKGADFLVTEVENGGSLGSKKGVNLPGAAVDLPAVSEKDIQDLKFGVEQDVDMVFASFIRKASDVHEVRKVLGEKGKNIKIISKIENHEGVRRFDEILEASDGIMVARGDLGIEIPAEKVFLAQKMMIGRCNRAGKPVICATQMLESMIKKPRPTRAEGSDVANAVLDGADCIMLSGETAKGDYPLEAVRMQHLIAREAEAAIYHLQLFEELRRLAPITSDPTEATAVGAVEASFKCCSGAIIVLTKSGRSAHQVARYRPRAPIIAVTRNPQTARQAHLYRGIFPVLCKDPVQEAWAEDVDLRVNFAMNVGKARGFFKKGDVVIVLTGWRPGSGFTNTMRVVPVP
# TEST NAME: Inhibition of human pyruvate kinase M1 at 10 uM by LDH assay
Note to self: number, then unit, no commentary.

Completed entries (count: 5):
CC/C(=N\NC(=O)c1cc(Br)ccc1O)c1cc2ccccc2[nH]1: 6.6%
CC(=NNC(=O)c1cc(Br)ccc1O)c1cc2cc(F)ccc2n1C (mixture of isomers): -4.5%
CCC(=NNC(=O)c1cc2ccccc2cc1O)c1cc2cc(Br)ccc2n1C (mixture of isomers): 0%
O=C(NN=C(c1ccccc1)c1cc2ccccc2[nH]1)c1cc(Br)ccc1O: 11.2%
C/C(=N\NC(=O)c1cc(Br)ccc1O)c1nc2ccccc2[nH]1: 7.6%

Here are 2 molecules. What values of inhibition were reported for them?
1. O=C(N/N=C/c1cc2ccccc2[nH]1)c1cc(Br)ccc1O
2. C/C(=N\NC(=O)c1cc(I)ccc1O)c1cc2ccccc2[nH]1

1: -7.2%; 2: 0%

The following molecules each have a reported value; give each one's inhibition.
1. CC(=NNC(=O)c1cc(I)ccc1O)c1cc2ccccc2n1C (mixture of isomers)
2. C/C(=N\NC(=O)c1cc(Br)ccc1O)c1cc2ccccc2s1
3. C/C(=N\NC(=O)c1cc(Br)ccc1O)c1cc2ccccc2[nH]1
4. COc1ccc2[nH]c(/C(C)=N/NC(=O)c3cc(Br)ccc3O)cc2c1

-5.3%
10.2%
4.6%
7.2%

# batch size: 7; output inhibition per entry
1. CCC(=NNC(=O)c1cc(Br)ccc1O)c1cc2ccccc2n1C (mixture of isomers)
2. C/C(=N\NC(=O)c1cc(Br)ccc1O)c1cc2cc(Br)ccc2[nH]1
3. COc1ccc(Br)cc1C(=O)N/N=C(\C)c1cc2ccccc2[nH]1
4. CC(=NNC(=O)c1cc(Br)ccc1O)c1nc2ccccc2n1C (mixture of isomers)
5. C#CCOc1ccccc1C(=O)N/N=C(\C)c1cc2cc(Br)ccc2[nH]1
6. CC(=NNC(=O)c1cc(Br)ccc1O)c1cc2cc(Cl)ccc2n1C (mixture of isomers)
7. CC(=NNC(=O)c1cc(Br)ccc1O)c1cc2ccccc2n1C (mixture of isomers)

-4.3%
21.6%
29%
-3%
20.2%
14.8%
-3.7%

For every record below, what is its inhibition?
1. C/C(=N\NC(=O)c1cc(Br)ccc1O)c1cc2cc(Cl)ccc2[nH]1
2. C/C(=N\NC(=O)c1cc(Br)ccc1O)c1cc2cc(F)ccc2[nH]1
3. COc1ccc2c(c1)cc(C(C)=NNC(=O)c1cc(Br)ccc1O)n2C (mixture of isomers)
4. CC/C(=N\NC(=O)c1cc2ccccc2cc1O)c1cc2cc(Br)ccc2[nH]1
5. CC(=NNC(=O)c1cc(Br)ccc1O)c1cc2cc(Br)ccc2n1C (mixture of isomers)

1. 4.4%
2. -4.6%
3. -2.8%
4. 5.6%
5. 19.5%

====

# TARGET OR TEST SYSTEM: Pyruvate kinase (Staphylococcus aureus (strain MRSA252))
# TEST NAME: Inhibition of methicillin-resistant Staphylococcus aureus 252 pyruvate kinase by LDH assay
Consider the following compounds; for each one, report its pIC50.
Numbers only, as −log10 of the molar value.

Consider the following illustrative entries.
CC/C(=N\NC(=O)c1cc2ccccc2cc1O)c1cc2c(F)c(F)c(F)cc2n1C: 7.28
CCC(=NNC(=O)c1cc2ccccc2cc1O)c1cc2cc(Br)ccc2n1C (mixture of isomers): 7.10

# map each compound to its pIC50
1. C/C(=N\NC(=O)c1cc(Br)ccc1O)c1cc2cc(O)ccc2[nH]1
2. CCC(=NNC(=O)c1cc(Br)ccc1O)c1cc2ccccc2n1C (mixture of isomers)
3. CC(=NNC(=O)c1cc(Br)ccc1O)c1cc2ccccc2n1C (mixture of isomers)

6.67
6.34
6.42

====

Kindly supply the reported inhibition values for the records listed here.
# TARGET OR TEST SYSTEM: Pyruvate kinase (Staphylococcus aureus (strain MRSA252)) (UniProt Q6GG09)
# Sequence (whole entry): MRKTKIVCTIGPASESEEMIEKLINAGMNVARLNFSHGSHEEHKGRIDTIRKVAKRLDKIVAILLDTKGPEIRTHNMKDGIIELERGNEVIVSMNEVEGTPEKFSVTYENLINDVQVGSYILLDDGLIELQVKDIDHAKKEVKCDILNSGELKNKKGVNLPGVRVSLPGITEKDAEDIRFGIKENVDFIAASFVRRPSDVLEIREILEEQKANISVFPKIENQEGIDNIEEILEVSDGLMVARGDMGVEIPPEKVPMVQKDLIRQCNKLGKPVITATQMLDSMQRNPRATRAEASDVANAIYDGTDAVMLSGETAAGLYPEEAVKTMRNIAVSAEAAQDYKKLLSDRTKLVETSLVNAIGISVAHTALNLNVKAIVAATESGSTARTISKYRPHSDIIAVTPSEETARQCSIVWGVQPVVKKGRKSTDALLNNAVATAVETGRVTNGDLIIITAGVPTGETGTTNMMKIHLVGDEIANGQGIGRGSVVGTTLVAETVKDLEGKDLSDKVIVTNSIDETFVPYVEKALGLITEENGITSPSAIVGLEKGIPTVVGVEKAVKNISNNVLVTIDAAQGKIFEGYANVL
# TEST NAME: Inhibition of methicillin-resistant Staphylococcus aureus 252 pyruvate kinase at 10 uM by LDH assay
# EXPERIMENTAL CONDITIONS: Staphylococcus aureus subsp. aureus MRSA252
One number for each entry, in %.

Known results for compounds:
C/C(=N\NC(=O)c1cc(I)ccc1O)c1cc2ccccc2[nH]1: 97
CC(=NNC(=O)c1cc(I)ccc1O)c1cc2ccccc2n1C (mixture of isomers): 94.2
C/C(=N\NC(=O)c1cc(Br)ccc1O)c1cc2ccccc2s1: 96.4

Give inhibition for each listed item.
1. CC(=NNC(=O)c1cc(Br)ccc1O)c1cc2cc(F)c(F)cc2n1C (mixture of isomers)
2. C/C(=N\NC(=O)c1cc(C(C)C)cc(C(C)C)c1O)c1cc2ccccc2[nH]1
3. C/C(=N\NC(=O)c1cc(Br)ccc1O)c1cc2cc(C(F)(F)F)ccc2[nH]1

[95.4, 40, 46]

Would you be so kind as to report inhibition for each listed record?
1. C/C(=N\NC(=O)c1cc(Br)ccc1O)c1cc2cc(Br)ccc2[nH]1
2. Cn1c(/C(=N\NC(=O)c2cc(Br)ccc2O)C(C)(C)C)cc2ccccc21

[72.2, 0]

Respectfully, I request inhibition for each entry included below.
1. COc1ccc(Br)cc1C(=O)O/N=C(\C)c1cc2ccccc2n1C
2. C/C(=N\NC(=O)c1cc(Br)ccc1O)c1cc2ccccc2[nH]1

1: 33; 2: 98.1
